Compiled from multiple publications: IC50 readings for Indoleamine 2,3-dioxygenase 1 (Homo sapiens, UniProt P14902).
REPORTED_ENDPOINT: IC50

> print(dat)
                                    compound  recorded.measurement
 1  CC1=C(c2ccccc2)C(CC(O)C2CCN(S(=O)(=O)C3CCCCC3)CC2)n2cncc21 (stereo not drawn)              < 0.5 µM
 2  Cc1cc(-c2nccc3c(Nc4ccc(F)cc4F)c(N)oc23)ccn1              < 0.2 µM
 3  Cc1ccc(CN(C(=O)Nc2ccc(C#N)cc2)c2ccnn2C)o1               > 30 µM
 4  CC1=C(c2ccccc2)C(CC(=O)c2ccc(C(=O)Nc3ccccc3)cc2)n2cncc21 (stereo not drawn)              < 0.5 µM
 5  CC1=C(c2ccccc2)C(CC(O)C2CCN(C(=O)Nc3ccccc3)CC2)n2cncc21 (stereo not drawn)              < 0.5 µM
 6             Cc1cc(Nc2c(N)oc3cnccc23)ccc1F              < 0.2 µM
 7     OCCCONc1nonc1/C(=N/O)Nc1ccc(F)c(Cl)c1              0.093 µM
 8        Nc1oc2cnc(Cl)cc2c1Nc1ccc(F)c(Cl)c1              < 0.2 µM
 9  Nc1oc2c(-c3ccc4ccccc4c3)nccc2c1Nc1ccc(F)c(Cl)c1              < 0.2 µM
10  CNC(=O)c1cc(-c2nccc3c(Nc4ccccc4Cl)c(N)oc23)ccn1              < 0.2 µM
11  CS(=O)(=O)NCCONc1nonc1/C(=N/O)Nc1ccc(F)c(F)c1              0.124 µM
12         Nc1oc2cnc(F)cc2c1Nc1ccc(F)c(Cl)c1              < 0.2 µM
13  Nc1oc2c(/C=C/c3ccccc3)nccc2c1Nc1ccc(F)c(Cl)c1              < 0.2 µM
14  Nc1oc2c(-c3ccc(Cl)cc3)nccc2c1Nc1ccc(F)c(Cl)c1              < 0.2 µM
15  Cc1cc(C)cc(-c2nccc3c(Nc4ccc(F)c(Cl)c4)c(N)oc23)c1              < 0.2 µM
16  COc1ccc(C(=O)CC2C(c3ccccc3)=C(C)c3cncn32)cc1 (stereo not drawn)              < 0.5 µM
17  CC1=C(c2ccccc2)C(CC(O)C2CCN(C(=O)OCc3ccccc3)CC2)n2cncc21 (stereo not drawn)              < 0.5 µM
18  Nc1oc2c(C3CCCCC3)nccc2c1Nc1ccc(F)c(Cl)c1              < 0.2 µM
